Entries and their drug sensitivity score
Test system: FM-MEL-6
test.protocol: drug sensitivity score (DSS) (DSS (unitless, 0-50 scale)); higher = more sensitive (stronger viability inhibition); extreme values may be limits of the assay
cond: 72 h; culture: 2D
// response body must contain only the number

Illustrative cases are given below, each with its answer.
C[C@@H](Oc1ccc2[nH]nc(/C=C/c3cnn(CCO)c3)c2c1)c1c(Cl)cncc1Cl; 2
CC1(C)CC[C@]2(NC(=O)C(C)(F)F)CC[C@]3(C)[C@H](C(=O)C=C4[C@@]5(C)C=C(C#N)C(=O)C(C)(C)[C@@H]5CC[C@]43C)[C@@H]2C1 [Omaveloxolone]; 13.9
COc1nc(N)nc2c1ncn2[C@@H]1O[C@H](CO)[C@@H](O)[C@@H]1O [Nelarabine]; 0.1

We now examine a further compound.
Could you please provide reported drug sensitivity score for Clc1ccc(Nc2nnc(Cc3ccncc3)c3ccccc23)cc1 [Vatalanib] ? Thanks!
0

----------
Test system: FM-MEL-6
test.protocol: drug sensitivity score (DSS) (DSS (unitless, 0-50 scale)); higher = more sensitive (stronger viability inhibition); extreme values may be limits of the assay
cond: 72 h; culture: 2D
Reported drug sensitivity score by item:
Output: the number by itself.

Here are 5 compounds together with their reported answers.
CNS(=O)(=O)Nc1nccc(Cc2c(C)c3ccc(Oc4ncccn4)cc3oc2=O)c1F; 0.2
CCNc1nc(Nc2cc(F)c(C(=O)N3CCOCC3)cc2OC)ncc1C(F)(F)F; 0
Cc1ccc(NS(=O)(=O)c2cccc(C#N)c2)c2[nH]cc(C#N)c12; 0.7
CN(C)C[C@@H]1CCn2cc(c3ccccc32)C2=C(C(=O)NC2=O)c2cn(c3ccccc23)CCO1; 7.6
COc1ccc(COc2cc3oc(=O)c4cc(C(C)O)ccc4c3cc2OC)cc1 (configuration not stated); 0.1

Indicate the recorded drug sensitivity score value for this compound: "Cn1cc(CNCC2CCN(c3ncc(C(=O)NO)cn3)CC2)c2ccccc21"
10.6

For "Cn1c(Nc2ccc(C(F)(F)F)cc2)nc2cc(Oc3ccnc(-c4ncc(C(F)(F)F)[nH]4)c3)ccc21" , write its drug sensitivity score.
2

Please supply the value of reported drug sensitivity score for the item N#CC(c1ccnc(OCc2ccc(CN3CCOCC3)cc2)n1)c1nc2ccccc2s1 (configuration not stated)
2.8

----------
Tested on: FM-MEL-6
test.protocol: drug sensitivity score (DSS) (DSS (unitless, 0-50 scale)); higher = more sensitive (stronger viability inhibition); extreme values may be limits of the assay
cond: 72 h; culture: 2D
Measured drug sensitivity score of individual entries

The examples below pair each entry with its known result.
FC(F)(F)c1ccc(CNc2ccc(Cc3c[nH]c4ncc(Cl)cc34)cn2)cn1; 1.1
COC(=O)C[C@](O)(CCCC(C)(C)O)C(=O)O[C@@H]1C(OC)=C[C@]23CCCN2CCc2cc4c(cc2[C@H]13)OCO4; 28.5
CC(C)Nc1cc(-c2c[nH]c(C(=O)N[C@H](CO)c3cccc(Cl)c3)c2)c(Cl)cn1; 7.6
O=C(Nc1c[nH]nc1-c1nc2ccc(CN3CCOCC3)cc2[nH]1)NC1CC1; 0
C[C@@H](Nc1cc(F)cc(F)c1)c1cc(C(=O)N(C)C)cc2c(=O)cc(N3CCOCC3)oc12; 2.2
CN(C)C1CCN(C(=O)c2ccc(NC(=O)Nc3ccc(-c4nc(N5CCOCC5)nc(N5CCOCC5)n4)cc3)cc2)CC1; 9.4

Look up and report measured drug sensitivity score for this entry: "O=C(c1ccc(C(=O)N2CCC(N3CCCC3)CC2)c(Nc2ccccc2)c1)N1CCC(N2CCCC2)CC1"
0

Look up and state reported drug sensitivity score for "C=CC(=O)N1CCC(Oc2cc3c(Nc4ccc(Cl)c(Cl)c4F)ncnc3cc2OC)CC1"
0

Find the measured drug sensitivity score of "O=c1[nH]cc(F)c(=O)[nH]1" and report it.
0.7

Report drug sensitivity score, nothing else, for this compound: "CNC(=O)c1cc(COc2nnc(Nc3ccc(Cl)cc3)c3ccoc23)ccn1"
0.1

Identify measured drug sensitivity score associated with "COc1cc(C)[nH]c(=O)c1CNC(=O)c1c(C)n([C@H](C)C2CCOCC2)c2ccccc12"
0.6
